Cited source: BindingDB's records for doi:10.1021/acs.jmedchem.9b00359

assay: Inhibition of HIV1 reverse transcriptase p66/p51 K103N/Y181C mutant infected in human MT2 cells assessed as reduction in viral infection incubated for 5 days
Catalogue of EC50 readings, one per entry.

The following compounds have reported results that may help.
Cc1c(Oc2ccccc2OCCn2ccc(=O)[nH]c2=O)cc(N(C)C(=O)CF)c2ccc(C#N)cc12	15 µM
C=CC(=O)Nc1cc(Oc2ccccc2OCCn2ccc(=O)[nH]c2=O)c(C)c2cc(C#N)ccc12	> 12 µM

The record that follows has no EC50 shown yet.
Which value of EC50 has been reported for C=CC(=O)N(C)c1cc(Oc2ccccc2OCCn2ccc(=O)[nH]c2=O)c(C)c2cc(C#N)ccc12 in the records? 0.5 µM
